- MEASUREMENT TARGET: Zinc finger protein mex-5 (Caenorhabditis elegans, UniProt Q9XUB2)
- Sequence (Q9XUB2 whole entry): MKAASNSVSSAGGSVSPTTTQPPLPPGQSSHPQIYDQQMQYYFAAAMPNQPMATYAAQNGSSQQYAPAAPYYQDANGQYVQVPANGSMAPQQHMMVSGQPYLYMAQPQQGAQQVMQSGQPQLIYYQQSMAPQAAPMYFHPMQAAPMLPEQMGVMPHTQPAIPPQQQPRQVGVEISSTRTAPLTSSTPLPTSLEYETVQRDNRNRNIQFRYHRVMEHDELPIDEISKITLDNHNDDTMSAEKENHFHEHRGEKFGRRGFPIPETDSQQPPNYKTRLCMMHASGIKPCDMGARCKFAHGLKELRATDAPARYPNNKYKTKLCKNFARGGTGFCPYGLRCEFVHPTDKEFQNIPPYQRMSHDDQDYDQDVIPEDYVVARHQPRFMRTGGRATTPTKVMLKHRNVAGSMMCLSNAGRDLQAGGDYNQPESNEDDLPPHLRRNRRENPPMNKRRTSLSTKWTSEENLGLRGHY
- ASSAY DETAILS: potency of MEX-5 RNA-binding blockers – biochemical, C. elegans, fluorescence polarization, dose response (AID 1960)
Activity calls are given as the source filed them.
MEASURED PROPERTY: EC50

MOLECULE	MEASUREMENT TARGET	MEASUREMENT
CCN1C/C(=C/c2cccs2)c2nc3ccccc3c(C(=O)O)c2C1	Zinc finger protein mex-5 (Caenorhabditis elegans, UniProt Q9XUB2)	31.9 µM (active)
O=C(/C=C/c1ccco1)NC(=S)Nc1ccc(C(=O)O)cc1	Zinc finger protein mex-5 (Caenorhabditis elegans, UniProt Q9XUB2)	12.8 µM (active)
COc1ccc(OC)c(N2C(=O)NC(=O)/C(=C\c3c[nH]c4ccccc34)C2=O)c1	Zinc finger protein mex-5 (Caenorhabditis elegans, UniProt Q9XUB2)	> 300 µM (not active)
c1coc(-c2nnc(-c3ccco3)nn2)c1	Zinc finger protein mex-5 (Caenorhabditis elegans, UniProt Q9XUB2)	7.69 µM (active)
Cc1n[nH]c(C)c1Sc1ccccc1/N=C/c1cc(Cl)cc([N+](=O)[O-])c1O	Zinc finger protein mex-5 (Caenorhabditis elegans, UniProt Q9XUB2)	7.57 µM (inconclusive)
COc1ccc(/C=C2\SC(=S)N(CCCC(=O)NC3CCCC3)C2=O)cc1OC	Zinc finger protein mex-5 (Caenorhabditis elegans, UniProt Q9XUB2)	55.7 µM (inconclusive)
Cc1ccc(-n2nc(C)c(/C=N/NC(=O)c3ccc(O)cc3O)c2O)cc1	Zinc finger protein mex-5 (Caenorhabditis elegans, UniProt Q9XUB2)	22 µM (active)
COc1ccc(C2C(C#N)=C(N)OC3=C2C(=O)CC(C)(C)C3)cc1 (stereo unspecified)	Zinc finger protein mex-5 (Caenorhabditis elegans, UniProt Q9XUB2)	> 300 µM (not active)
CCOC(=O)N1CCN(C2=Nc3cccc4cccc2c34)CC1	Zinc finger protein mex-5 (Caenorhabditis elegans, UniProt Q9XUB2)	60.2 µM (active)
Cc1ccc(C)n1-c1ccc(C(=O)O)cc1	Zinc finger protein mex-5 (Caenorhabditis elegans, UniProt Q9XUB2)	20.5 µM (inconclusive)
CCN(CC)CCCNC(=O)CCC(=O)NNc1nc2ccccc2c2nc(C)nn12	Zinc finger protein mex-5 (Caenorhabditis elegans, UniProt Q9XUB2)	0.93 µM (active)

---

- System: BJ
- ASSAY DETAILS: BJ-TERT-LT-ST fibroblast viability loss – cell-based, RAS-independent, luminescence, dose response (AID 1935);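 note: BJ fibroblasts immortalized with TERT plus LT and ST oncogenes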
- Format: functional
- CONDITION: Homo sapiens
Activity calls are given as the source filed them.

SMILES STRING	MEASUREMENT TARGET	EC50
O=C(N/N=C/c1ccc(Cl)cc1)c1[nH]nc2c1CCCC2	BJ	0.669 µM (active)
CN1CCN(c2ccc(C(=O)c3ccccc3)cc2[N+](=O)[O-])CC1	BJ	> 150 µM (inconclusive)
Nc1cc2sc(-c3ccc(C(=O)O)cc3)nc2cc1Cl	BJ	> 150 µM (inconclusive)
COc1cccc(Oc2cnc(N)nc2-c2ccc(OC)cc2O)c1	BJ	67.1 µM (active)

---

- MEASUREMENT TARGET: Replicative DNA helicase DnaB (Mycobacterium tuberculosis, UniProt P9WMR3)
- ASSAY DETAILS: DnaB intein splicing inhibitors, dose response, biochemical, cell-free fluorescence (AID 449749)
- Assay type: functional
Calls of active or inactive are those of the source.
Outcomes: t = active, f = inactive

COMPOUND	CLASS NAME
COc1ccc(NC(=O)Nc2c(O)ccc3ccccc23)cc1	f
O=C(N/N=C/c1ccc(OC(=O)c2ccco2)cc1)c1ccc[n+]([O-])c1	t
N#C/C(=N\Nc1ccc(S(=O)(=O)N2CCc3ccccc32)cc1)C(N)=S	t
COc1ccc(-n2nc3c(c2NC(=O)CCl)CSC3)cc1	t
c1coc(-c2nnc(-c3ccco3)nn2)c1	t
N=c1c2c(-c3ccccc3)c(-c3ccccc3)n(Cc3ccco3)c2ncn1Cc1ccccc1	t
Cc1nn(-c2ccccc2)c(O)c1/C=N/NC(=O)c1ccc(O)cc1O	t
CC1=NN(c2ccc(C)cc2C)C(=O)C1C(c1ccccc1)C1C(=O)N(c2ccc(C)cc2C)N=C1C (centres undefined)	t
N=c1c2c(-c3ccccc3)c(-c3ccccc3)n(Cc3ccco3)c2ncn1Cc1ccco1	t
Cc1n[nH]c(O)c1C(c1ccc(F)cc1)c1c(C)n[nH]c1O	t
COc1ccc2[nH]c(CN3CCC(CO)(CCOc4ccccc4)CC3)c(C)c2c1	f
N#CC(C#N)=C(Nc1ccc(F)cc1)SCc1cccc(Br)c1	t
Cc1n[nH]c2c1C(c1ccc(OC(=O)c3ccco3)cc1)C(C#N)=C(N)O2 (centres undefined)	t
Oc1c(/C=N/Cc2ccc(F)cc2)[nH]c2ccc(Br)c(Cl)c12	t
Oc1cc(-c2cccc3ccccc23)[nH]n1	t
COc1ccc(CC2=CC(=O)c3ccccc3C2=O)cc1	t
COc1cc(OC)cc(C(=O)N/N=C(\C)CC(=O)Nc2ccccn2)c1	t
CCC(=O)N(CC)C1=C(O)C(=O)c2ccccc2C1=O	t
CN(C)c1ccc(C(=O)n2nnc3ccccc32)cc1	t
Oc1[nH]c2ccc(Br)cc2c1N=NC(=S)N1CCOCC1	f
Cc1n[nH]c(O)c1C(c1ccc2c(c1)OCO2)c1c(C)n[nH]c1O	t
CCCCCCCCNC(=O)/C(C#N)=C/c1ccccc1[N+](=O)[O-]	t
O=C(c1ccco1)c1coc2c1cc(O)c1ccccc12	t

Origin of the recorded values: ChEMBL document CHEMBL1201862
